Each record here notes measured ELISA score.
- test_system: T1, human neonatal Fc receptor (hFcRn) (human, UniProt P55899 24-290; P61769 21-119)
- T1 construct: Biotinylated in the ELISA, Octet and yeast assays; also called human FcRn; huFcRn
- T1 sequence (P55899 24-290 limits assumed, chain 1 of 2): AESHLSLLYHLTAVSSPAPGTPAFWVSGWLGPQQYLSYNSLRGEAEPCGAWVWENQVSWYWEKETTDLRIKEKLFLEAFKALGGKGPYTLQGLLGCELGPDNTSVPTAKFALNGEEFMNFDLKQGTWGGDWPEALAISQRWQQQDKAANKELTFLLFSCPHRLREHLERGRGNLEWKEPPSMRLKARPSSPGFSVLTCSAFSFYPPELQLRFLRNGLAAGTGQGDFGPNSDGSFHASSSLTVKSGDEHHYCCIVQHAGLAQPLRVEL
- T1 sequence (P61769 21-119 limits assumed, chain 2 of 2): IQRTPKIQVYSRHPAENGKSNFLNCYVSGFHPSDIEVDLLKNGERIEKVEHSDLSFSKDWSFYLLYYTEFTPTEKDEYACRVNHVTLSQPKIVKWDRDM
- test: phage ELISA pH 6;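 further: higher score means stronger binding and above about 3 to 5 exceeds background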

[[record]]
binder = "L6B isolate with insertion SEQ ID NO: 460 (other) EPKSCDKTHTCPPCPAPELLGGPSVFLFPPKPKDTLMISRTPEVTCVVVDVSHEDPEVKFNWYVDGVEVHNAKTKPREEQYNSTYRVVSVLTVLHQDWLNGKEYKCKVSNKALPAPIEKTISKAKGQPREPQVYTLPPSRDELGGCGEYNYVGGCGGTKNQVSLTCLVKGFYPSDIAVEWESNGQPENNYKTTPPVLDSDGSFFLYSKLTVDKSRWQQGNVFSCSVMHEALHNHYTQKSLSLSPGK"
result = 47.2


Okay, next one:
Q) Recorded ELISA score of L5 isolate with insertion SEQ ID NO: 408 (other) EPKSCDKTHTCPPCPAPELLGGPSVFLFPPKPKDTLMISRTPEVTCVVVDVSHEDPEVKFNWYVDGVEVHNAKTKPREEQYNSTYRVVSVLTVLHQDWLNGKEYKCKVSNKALPAPIEKTISKAKGQPREPQVYTLPPSRDELTKNQVSLTCLVKGFYPSDIAVEWESNGGCQKGWVFCGGGQPENNYKTTPPVLDSDGSFFLYSKLTVDKSRWQQGNVFSCSVMHEALHNHYTQKSLSLSPGK , please.
A) 72

Values from patent US20140356358A1
